# reportedConditions: in 2-ethoxyethanol, 293.15 K
measurementType: solubility (mole fraction)

| smilesString | measurementType | experimentalResult |
| --- | --- | --- |
| CC(=O)N1CCN(c2ccc(O)cc2)CC1 | solubility (mole fraction) | 0.00705 |

* * *

# reportedConditions: in n-butanol, 283.15 K
measurementType: solubility (mole fraction)

| smilesString | experimentalResult |
| --- | --- |
| CC(=O)N1CCN(c2ccc(O)cc2)CC1 | 0.00119 |

* * *

# reportedConditions: in ethylene glycol, 293.15 K

| smilesString | solubility (mole fraction) |
| --- | --- |
| CC(=O)N1CCN(c2ccc(O)cc2)CC1 | 0.000921 |
